pIC50 values, listed per item
experiment: Cytotoxic activity assay; format: cell-based; conditions: human; normal cell line 293T
pIC50: −log10 of the molar value. *1 amine or outer side, *2 acyl side, *3 side chain or, on linkers, in order; H or OH if unused. Where a SMILES comes first, the peptide text is derived from it. [ ]: non-standard residue; d: D form. The star is where a group is joined. ξ: configuration not given here. Decanoyl(3ξ-OH) = CCCCCCCC(O)CC(=O)*; X1 = CC=C(N[*:1])C(=O)[*:2]

{"columns": ["MOLECULE", "READING QUALIFIER", "pIC50"],
 "data": [
  ["CC=C(NC(=O)CC(O)CCCCCCC)C(=O)N1CCCC1C(=O)NC(CCC(N)=O)C(=O)NC(C)C(=O)NC(C(=O)NC(Cc1ccccc1)C(=O)N1CCCC1C(=O)NC(C(=O)O)C(C)O)C(C)C (stereo not drawn) [Compound 2, Burriogladiodin B] ({Decanoyl(3ξ-OH)}-[X1]PQAVFPT-OH; configuration not given here)", "<", 4.40],
  ["CC=C(NC(=O)CC(O)CCCCCCC)C(=O)N1CCCC1C(=O)NC(CCC(N)=O)C(=O)NC(C)C(=O)NC(C)C(=O)NC(Cc1ccccc1)C(=O)O (stereo not drawn) [Compound 8, Burriogladiodin H] ({Decanoyl(3ξ-OH)}-[X1]PQAAF-OH; configuration not given here)", "<", 4.40],
  ["CC=C(NC(=O)CC(O)CCCCCCC)C(=O)N1CCCC1C(=O)NC(CCC(N)=O)C(=O)NC(C)C(=O)NC(C(=O)NC(Cc1ccccc1)C(=O)N1CCCC1C(=O)O)C(C)C (stereo not drawn) [Compound 1, Burriogladiodin A] ({Decanoyl(3ξ-OH)}-[X1]PQAVFP-OH; configuration not given here)", "=", 4.53],
  ["CC=C(NC(=O)CCCCCCC)C(=O)NC(=CC)C(=O)NC(Cc1ccc(O)cc1)C(=O)O (stereo not drawn) [Compound 10, Haereogladiodin B]", "=", 4.47],
  ["CC=C(NC(=O)CC(O)CCCCCCC)C(=O)N1CCCC1C(=O)NC(CCC(N)=O)C(=O)NC(C)C(=O)NC(C(=O)NC(Cc1ccccc1)C(=O)O)C(C)C (stereo not drawn) [Compound 5, Burriogladiodin E] ({Decanoyl(3ξ-OH)}-[X1]PQAVF-OH; configuration not given here)", "=", 4.60],
  ["CC=C(NC(=O)CCCCCCC)C(=O)NC(=CC)C(=O)NC(Cc1ccc(O)cc1)C(=O)NC(CC(C)C)C(=O)Nc1ccc(C(=O)NC(C(=O)O)C(C)O)cc1 (stereo not drawn) [Compound 9, Haereogladiodin A]", "=", 4.44]
]}

---

assay: Cytotoxic activity assay; format: cell-based; details: human, 293T cells (normal cell line); normal cell line 293T
VALUE TYPE: IC50 (nM)

{"columns": ["COMPOUND", "RESULT NUMBER"],
 "data": [
  ["COc1cccc2c1C(=O)c1c(O)c3c(c(O)c1C2=O)C[C@@](O)(C(=O)CO)C[C@@H]3O[C@H]1C[C@H](N)[C@H](O)[C@H](C)O1 [adriamycin, reference compound]", 1470]
]}
